Cpd Smiles	melting point
COC1=C(OC)C(=O)C(Cc2ccc(O)c(C(=O)Nc3cc(OC)ccc3OC)c2)=C(C)C1=O	130 to 132 °C
COC1=C(OC)C(=O)C(Cc2ccc(OC(C)=O)c(C(=O)Nc3ccc(Cl)nc3)c2)=C(C)C1=O	74.5 to 77.5 °C
COC1=C(OC)C(=O)C(Cc2ccc(OC(C)=O)c(C(=O)Nc3ccc(F)cc3)c2)=C(C)C1=O	128.5 to 130.5 °C
COC1=C(OC)C(=O)C(Cc2ccc(OCc3cccnc3)c(C(=O)Nc3ccncc3)c2)=C(C)C1=O	116 to 119 °C
COC1=C(OC)C(=O)C(Cc2ccc(OCc3cccnc3)c(C(=O)Nc3cccnc3)c2)=C(C)C1=O	135 to 137 °C
COC1=C(OC)C(=O)C(Cc2ccc(OC(C)=O)c(C(=O)Nc3ccc(C(=O)OC(C)(C)C)cc3)c2)=C(C)C1=O	78.5 to 81 °C
COC1=C(OC)C(=O)C(Cc2ccc(OC(C)=O)c(C(=O)Nc3ccc(C(=O)O)cn3)c2)=C(C)C1=O	123 to 125 °C

###

Measured Metric: melting point

Cpd Smiles	Data Value
COC1=C(OC)C(=O)C(Cc2ccc(O)c(C(=O)Nc3cccnc3OC)c2)=C(C)C1=O	112 to 114 °C
COC1=C(OC)C(=O)C(Cc2ccc(C(=O)Nc3ccc(S(=O)(=O)C(F)(F)F)cc3)c(O)c2)=C(C)C1=O	186.9 to 187.5 °C
CCOC(=O)c1ccc(NC(=O)c2cc(CC3=C(C)C(=O)C(OC)=C(OC)C3=O)ccc2O)cc1	176 to 179 °C
COC1=C(OC)C(=O)C(Cc2ccc(OC(C)=O)c(C(=O)Nc3ccc(CC#N)cc3)c2)=C(C)C1=O	125 to 128 °C
COC1=C(OC)C(=O)C(Cc2ccc(C(=O)Nc3ccc(OC)nc3)c(OC(C)=O)c2)=C(C)C1=O	124.7 to 125.5 °C
COC1=C(OC)C(=O)C(Cc2ccc(OC(C)=O)c(C(=O)Nc3cccnc3OC)c2)=C(C)C1=O	111 to 112 °C
COC1=C(OC)C(=O)C(Cc2ccc(OC(C)=O)c(C(=O)NC3CC3)c2)=C(C)C1=O	95.5 to 98 °C

###

Measured Metric: melting point

Molecule	Data Value
CCOC(=O)c1ccc(NC(=O)c2cc(CC3=C(C)C(=O)C(OC)=C(OC)C3=O)ccc2OC(C)=O)cc1 [Example 147]	154 to 156.5 °C
COC1=C(OC)C(=O)C(Cc2ccc(O)c(C(=O)Nc3ccc(OC)nc3)c2)=C(C)C1=O [Example 181]	169 to 170 °C
COC1=C(OC)C(=O)C(Cc2ccc(O)c(C(=O)Nc3ccncc3)c2)=C(C)C1=O.CS(=O)(=O)O [Example 203]	199.5 to 201.5 °C
COC1=C(OC)C(=O)C(Cc2ccc(OC(C)=O)c(C(=O)Nc3ccc(C(=O)O)cc3)c2)=C(C)C1=O [Example 189]	199 to 201.5 °C
CC(=O)Oc1ccc(CC2=C(C)C(=O)C(C)=C(C)C2=O)cc1C(=O)Nc1ccc(C(F)(F)F)cc1 [Example 234]	180 to 181 °C
COC1=C(OC)C(=O)C(Cc2ccc(C(=O)Nc3ccc(Cl)nc3)c(O)c2)=C(C)C1=O [Example 131]	200.2 to 201.9 °C
COC1=C(OC)C(=O)C(Cc2ccc(C(=O)Nc3cccnc3)c(OC(C)=O)c2)=C(C)C1=O [Example 138]	158.2 to 160 °C

###

Recorded melting point for the following molecules
Measured Metric: melting point

Cpd Smiles	Measured Metric	Data Value
CCOC(=O)c1ccc(NC(=O)c2cc(CC3=C(C)C(=O)C(OC)=C(OC)C3=O)ccc2OCc2cccnc2)cc1	melting point	83 to 85.5 °C
CC1=C(C)C(=O)C(Cc2ccc(O)c(C(=O)Nc3ccncc3)c2)=C(C)C1=O	melting point	245 to 247 °C
COC1=C(OC)C(=O)C(Cc2ccc(OC(C)=O)c(C(=O)Nc3cccc(C(F)(F)F)c3)c2)=C(C)C1=O	melting point	98 to 100 °C
COC1=C(OC)C(=O)C(Cc2ccc(O)c(C(=O)Nc3cccnc3)c2)=C(C)C1=O.CS(=O)(=O)O	melting point	149.5 to 152 °C
COC1=C(OC)C(=O)C(Cc2ccc(O)c(C(=O)Nc3ccc(-n4ccnc4)cc3)c2)=C(C)C1=O	melting point	119 to 121.5 °C
COC1=C(OC)C(=O)C(Cc2ccc(OC(C)=O)c(C(=O)Nc3cc(OC)ncn3)c2)=C(C)C1=O	melting point	138.5 to 141 °C
COC1=C(OC)C(=O)C(Cc2ccc(O)c(C(=O)Nc3cccc([N+](=O)[O-])c3)c2)=C(C)C1=O	melting point	153 to 154 °C

###

Recorded melting point for the following compounds

Compound	melting point
COC1=C(OC)C(=O)C(Cc2ccc(OC(C)=O)c(C(=O)Nc3ncccc3C(=O)O)c2)=C(C)C1=O [Example 194]	148 to 151 °C
COC1=C(OC)C(=O)C(Cc2cccc(C(=O)Nc3ccc(S(=O)(=O)C(F)(F)F)cc3)c2OC(C)=O)=C(C)C1=O [Example 175]	87 to 89 °C
COC1=C(OC)C(=O)C(Cc2ccc(O)c(C(=O)Nc3ccc([N+](=O)[O-])cc3)c2)=C(C)C1=O [Example 191]	213.5 to 215.5 °C
COC1=C(OC)C(=O)C(Cc2cccc(C(=O)Nc3ccc(N4CCOCC4)cc3)c2OC(C)=O)=C(C)C1=O [Example 178]	168 to 171 °C
COC1=C(OC)C(=O)C(Cc2ccc(O)c(C(=O)Nc3ncccc3C(=O)O)c2)=C(C)C1=O [Example 195]	134 to 136.5 °C
COC1=C(OC)C(=O)C(Cc2ccc(C(=O)Nc3cccnc3)c(O)c2)=C(C)C1=O [Example 139]	138.1 to 139.7 °C
COC1=C(OC)C(=O)C(Cc2ccc(O)c(C(=O)Nc3ccc(N4CCOCC4)nc3)c2)=C(C)C1=O [Example 225]	102.5 to 105 °C
COC1=C(OC)C(=O)C(Cc2ccc(O)c(C(=O)Nc3ccncc3)c2)=C(C)C1=O [Example 157]	171 to 172.5 °C
COC1=C(OC)C(=O)C(Cc2ccc(OCc3cccnc3)c(C(=O)NC3CC3)c2)=C(C)C1=O [Example 170]	87 to 89.5 °C
CC1=C(C)C(=O)C(Cc2ccc(O)c(C(=O)Nc3ccc(C(F)(F)F)cc3)c2)=C(C)C1=O [Example 235]	233 to 235 °C
COC1=C(OC)C(=O)C(Cc2ccc(OC(C)=O)c(C(=O)Nc3ccccn3)c2)=C(C)C1=O [Example 155]	124 to 126.5 °C
COC1=C(OC)C(=O)C(Cc2ccc(O)c(C(=O)Nc3ccc(N)cc3)c2)=C(C)C1=O.Cl [Example 205]	162 to 164 °C
COC1=C(OC)C(=O)C(Cc2ccc(OC(C)=O)c(C(=O)Nc3ccccc3C(F)(F)F)c2)=C(C)C1=O [Example 145]	57.5 to 60 °C
COC1=C(OC)C(=O)C(Cc2ccc(OC(C)=O)c(C(=O)Nc3ccnc(OC)c3)c2)=C(C)C1=O [Example 230]	138 to 140.5 °C
COC1=C(OC)C(=O)C(Cc2ccc(O)c(C(=O)Nc3ccc(CC#N)cc3)c2)=C(C)C1=O [Example 150]	164.5 to 166 °C

###

Recorded melting point for the following compounds

Compound	melting point
CC(=O)Oc1ccc(CC2=C(C)C(=O)C(C)=C(C)C2=O)cc1C(=O)O [Example 233]	157 to 159.5 °C
COC1=C(OC)C(=O)C(Cc2ccc(O)c(C(=O)Nc3ccnc(Cl)c3)c2)=C(C)C1=O [Example 227]	142 to 144 °C
COC1=C(OC)C(=O)C(Cc2cccc(C(=O)Nc3ccc(C(F)(F)F)cc3)c2O)=C(C)C1=O [Example 166]	129 to 131.5 °C
COC1=C(OC)C(=O)C(Cc2ccc(OC(C)=O)c(C(=O)NC3CCCCC3)c2)=C(C)C1=O [Example 161]	137.5 to 140 °C

###

Compound	melting point
COC1=C(OC)C(=O)C(Cc2ccc(O)c(C(=O)Nc3ccc(NC(=O)OC(C)(C)C)cc3)c2)=C(C)C1=O [Example 200]	127 to 129 °C
COC1=C(OC)C(=O)C(Cc2ccc(O)c(C(=O)Nc3ccccc3C(F)(F)F)c2)=C(C)C1=O [Example 146]	111 to 114 °C
COC1=C(OC)C(=O)C(Cc2ccc(OC(C)=O)c(C(=O)Nc3cccnc3Cl)c2)=C(C)C1=O [Example 186]	128.5 to 130 °C
COC1=C(OC)C(=O)C(Cc2cccc(C(=O)Nc3cccnc3)c2O)=C(C)C1=O [Example 207]	169 to 171 °C
COC1=C(OC)C(=O)C(Cc2ccc(O)c(C(=O)NC3CCCCC3)c2)=C(C)C1=O [Example 162]	107 to 109 °C
COC1=C(OC)C(=O)C(Cc2ccc(O)c(C(=O)Nc3cccnc3Cl)c2)=C(C)C1=O [Example 187]	152 to 154 °C
COC1=C(OC)C(=O)C(Cc2ccc(OC)c(C(=O)Nc3cccnc3Cl)c2)=C(C)C1=O [Example 221]	178 to 180 °C
COC1=C(OC)C(=O)C(Cc2ccc(C(=O)Nc3ccc(OC)nc3)c(O)c2)=C(C)C1=O [Example 135]	194.3 to 196.5 °C
